The entries below come with measured MIC values attached.
- Tested on: M abscessus ATCC 19977 Type strain
- Assay Info: checkerboard minimum inhibitory concentration (MIC) assay with FICI calculation
- Format: cell-based
- Cond: 168 h; Antiinfective-Y alone; M abscessus ATCC 19977; 37° C., 7 days; absorbance 595 nm; read-out: Active Agent-Y MIC Alone
Property Label: MIC (µg/mL)

INSERT INTO results (compound, measured_result) VALUES
  ('Cn1nnc(-c2ccc(-c3ccc(N4C[C@H](CO)OC4=O)cc3F)cn2)n1 [Tedizolid]', 0.5),
  ('C[C@@H](O)[C@H]1C(=O)N2C(C(=O)O)=C(SC3CN(C4=NCCS4)C3)[C@H](C)[C@H]12 [Tebipenem]', 8),
  ('CC[C@H]1OC(=O)[C@H](C)[C@@H](O[C@H]2C[C@@](C)(OC)[C@@H](O)[C@H](C)O2)[C@H](C)[C@@H](O[C@@H]2O[C@H](C)C[C@H](N(C)C)[C@H]2O)[C@](C)(OC)C[C@@H](C)C(=O)[C@H](C)[C@@H](O)[C@]1(C)O [Clarithromycin]', 0.5),
  ('C[C@@H](O)[C@H]1C(=O)N2C(C(=O)[O-])=C(SC3Cn4cnc[n+]4C3)[C@H](C)[C@H]12 (stereo partly drawn) [Biapenem]', 8),
  ('C[C@@H](O)[C@H]1C(=O)N2C(C(=O)O)=C(SCCN=CN)C[C@H]12 [Imipenem]', 2),
  ('C=CC1=C(C(=O)O)N2C(=O)[C@@H](NC(=O)/C(=N\O)c3csc(N)n3)[C@H]2SC1 [Cefdinir]', 8);
